Each entry below lists one item and its recorded pKd value.
experimental-target: SARS-COV-2 RBD extracellular domain expressed with a C-terminal myc-myc-hexahistidine tag (SARS-COV-2 RBD-mmH) (SARS-CoV-2)
method-description: SPR Biacore, mAb captured on anti-hFc, RBD-mmH analyte, 37 C
Scale explanation: pKd corresponds to minus log10 of a concentration expressed in moles per litre.

Some solved cases for reference:
>>> recorded_result("mAb14255 (antibody, V domains shown) VH: QVQLQESGPGLVKPSETLSLTCTVSGGSISGYYWSWIRQPPGKGLDWIGYIYYRGNTNYNPSLKSRVTISVDTSNNQFSLKLSSVTAADTAVYYCARYGEGYGDASGYHFDYWGQGTLVTVSS VL: QSALTQPASVSGSPGQSITISCTGTSSDVGSYNLVSWYQQHPGKAPKLMIYEDSKRPSGVANPFSGSKSGNTASLTISGLQAEDEADYYCSSYAGSSTWVFGGGTKLTVLG")
8.56
>>> recorded_result("mAb14232 (antibody, V domains shown) VH: QITLKESGPTLVKPTQTLTLTCTFSGFSLSASGVGVGWIRQPPGKALEWLALIYWDDDKRYSPSLKSRLTITKDTSKNQVVLTMTNMDPVDTATYYCAQHKVATIFDYWGQGTLVTVSS VL: QSALTQPPSASGSPGQSVTISCTATSSDVGNYNYVSWYQQHPGKAPKLMIYEVTKRPSGVPDRFSGSKSGNTASLTVSGLQAEDEADYYCSSYAGSWGVFGGGTKLTVLG")
8.10
>>> recorded_result("mAb14258 (antibody, V domains shown) VH: QLQLQESGPGLVKPSETLSLICTGSGDSISSSHYYWGWIRQPPGKGLEWIGSTYFSGSTYYNPSLKSRVSISVDTSKNQVSLKLISVTAADTAVYYCAREMGATLGDYWGPGTLVTVSS VL: QSVLTQPPSASGTPGQRVTISCSGSSSNIGNNYVYWYQQFPGTTPRLLIYRNNERPSGVPDRFSGSKSGTSASLVISGLRSEDEADYYCAAWDDSLSAHYVFGTGTKVTVLG")
9.10
>>> recorded_result("mAb14281 (antibody, V domains shown) VH: QVQLVQSGADVKKPGASVKVSCKTSGYIFTGYYIHWVRQAPGQGLEWMGWINPNSGGTNSAQKFQGRVTMTRDTSISTVYMELSRLRSDDTAVYYCAKSNSFSVLDYNFDYWGQGTLVTVSS VL: SSELTQDPAVSVALGQTVRITCQGDSLRSYYASWYQQKPGQAPVLVIYDKNNRPSGIPDRFSGSSSGNTASLTITGAQAEDEADYYCNSRDSSRNHLVVFGGGTKLTVLG")
8.28

Field: next binder
Challenge: Quick check: pKd of mAb15157 (antibody, V domains shown) VH: EVQLVESGGALVQPGGSLRLSCAASGFPFTIYAMTWVRQAPGKGLEWVSVITGSGDSTYYADSVKGRFTISRDNSKNTLYLQMNSLRAEDTAVYYCVKTGEGFFYYYYGMDVWGQGTTVTVSS VL: QSVLTQPPSVSAAPGQKVTISCSGSSSNIGNSYISWYQQLPGTAPKLLIYVNNKRPSGIPDRFSGSKSGTSATLGITGLQTGDEADYYCGTWDSSLSAGVFGSGTKVTVLG ?
Response given: 7.94
